# System: L1210 leukemia ip in BDF1 mice, survival T/C
# test method notes: NCI In Vivo Anticancer Drug Screen. Data for tumor model L1210 Leukemia (intraperitoneal) in B6D2F1 (BDF1) mice
# condition label: endpoint: mean survival time; dose: 200.0 mg/kg/injection; schedule: Q01DX001 (ip); vehicle: carboxymethylcellulose (CMC); higher = longer survival
# Description: The antitumor activity of compounds was measured in mice bearing transplantable tumors. Survival or tumor size were measured and the results are expressed as the measurement made in the treated group (T) divided by the measurement made in the vehicle treated control group (C). The tumor model used in this assay is L1210 Leukemia (intraperitoneal) in B6D2F1 (BDF1) mice
Inconclusive results and toxic doses are left out.
quantity: T/C

compound	system tested	reported measurement
Nc1ncnc2c1ncn2C1OC(CO)C(S)C1O (configuration not stated)	L1210 leukemia ip in BDF1 mice, survival T/C	92 % of control
O=[N+]([O-])c1ccc(-c2cccc(Cl)c2)c([N+](=O)[O-])c1	L1210 leukemia ip in BDF1 mice, survival T/C	91 % of control
CCN(c1ccc(Br)cc1)c1ccc(Br)cc1	L1210 leukemia ip in BDF1 mice, survival T/C	94 % of control
Nc1ccc(S(=O)(=O)c2cc(O)ccc2O)cc1	L1210 leukemia ip in BDF1 mice, survival T/C	100 % of control
Cn1c2ccc3c(c2c(=O)c2ccoc21)C=CC(C)(C)O3	L1210 leukemia ip in BDF1 mice, survival T/C	91 % of control
CC(=O)CC(=O)Nc1cccnc1	L1210 leukemia ip in BDF1 mice, survival T/C	96 % of control
NS(=O)(=O)c1cc2c(cc1Cl)NC(CSCC(F)(F)F)NS2(=O)=O (configuration not stated)	L1210 leukemia ip in BDF1 mice, survival T/C	108 % of control
Cc1ccc(S(=O)(=O)N2CCCC(=O)c3ccccc32)cc1	L1210 leukemia ip in BDF1 mice, survival T/C	100 % of control
N#Cc1cc(Cl)cc(Cl)c1	L1210 leukemia ip in BDF1 mice, survival T/C	104 % of control
Cc1ccc(NC(=O)N(CCCCl)N=O)cc1	L1210 leukemia ip in BDF1 mice, survival T/C	121 % of control
OCC1OCOC(CI)C(O)C1O (configuration not stated)	L1210 leukemia ip in BDF1 mice, survival T/C	101 % of control
COCc1nc2c(=S)nc[nH]c2n1N	L1210 leukemia ip in BDF1 mice, survival T/C	98 % of control
